METHOD NOTES: Metabolic stability in rat liver microsomes assessed as intrinsic clearance
Assay type: ADME, Microsome

COMPOUND: Cc1nc2ccccc2n1C1C[C@H]2CC[C@@H](C1)N2CC[C@H](NC(=O)C1CCSCC1)c1cccc(F)c1 (stereo partly specified)
microsomal CLint: > 510 µL/min/mg

---

METHOD NOTES: Permeability from apical to basolateral side in human Caco-2 cells at 5 uM
Format: ADME, cell-based
EXPERIMENTAL CONTEXT: read-out: permeability
// 0 strictly below 20 ×10⁻⁶ cm/s in Papp A→B at 5 µM; 1 otherwise

COMPOUND: Cc1nc2ccc(F)cc2n1C1C[C@H]2CC[C@@H](C1)N2CCC(NC(=O)C1CC[S+]([O-])CC1)c1cccc(F)c1 (stereo partly specified)
CLASSIFICATION: 0
--
COMPOUND: Cc1nc2ccncc2n1C1C[C@H]2CC[C@@H](C1)N2CCC(NC(=O)C1CC[S+]([O-])CC1)c1cccc(F)c1 (stereo partly specified)
CLASSIFICATION: 0
--
COMPOUND: Cc1nc2cc(F)ccc2n1C1C[C@H]2CC[C@@H](C1)N2CC[C@H](NC(=O)C1CCS(=O)(=O)CC1)c1cccc(F)c1 (stereo partly specified)
CLASSIFICATION: 1
--
COMPOUND: Cc1nc2ccc(F)cc2n1C1C[C@H]2CC[C@@H](C1)N2CC[C@H](NC(=O)C1CCS(=O)(=O)CC1)c1cccc(F)c1 (stereo partly specified)
CLASSIFICATION: 1
